The values you see were collected from patent US20130224224A1.

- measured-on: T1, human CX3CR1 (human, UniProt P49238 1-355)
- T1 construct: overexpressed on CHO, BA/F3 or HEK293T cells; also called huCX3CR1; hCX3CR1
- T1 sequence: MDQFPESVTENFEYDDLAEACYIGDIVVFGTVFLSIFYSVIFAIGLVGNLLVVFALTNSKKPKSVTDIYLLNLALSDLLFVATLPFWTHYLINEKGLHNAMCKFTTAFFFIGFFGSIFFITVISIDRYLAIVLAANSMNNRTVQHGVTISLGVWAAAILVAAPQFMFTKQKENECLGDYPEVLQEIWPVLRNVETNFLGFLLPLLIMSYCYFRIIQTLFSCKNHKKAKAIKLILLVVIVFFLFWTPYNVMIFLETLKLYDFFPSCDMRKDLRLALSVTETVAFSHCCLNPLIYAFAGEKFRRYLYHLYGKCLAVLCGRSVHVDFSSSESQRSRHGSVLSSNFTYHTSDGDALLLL
- assay-method-text: fractalkine competition FACS
Provide the reported % block of each item.
Give a bare numeral; the unit % is implied.

I have this binder here, CX3CR1BII66B02 (N52S, Q108L) (VHH, name in Kabat numbering) VHH: EVQLVESGGGSVQAGESLRLSCAASGSIFSSNAMAWYRQAPGKRRDLVAAISSVGVTKYADSVKGRFTISRDNAKNTVYLQMNSLKPEDTAVYYCTSDPRRGWDTRYWGQGTLVTVSS , and I need its recorded % block.
98

For CX3CR1BIIPMP66B02 (VHH, alexa647 label where used as labeled competitor (Table 23), also called CX3CR1BII66B02; C100CX3CR1BII66B02; not shown: C-terminal c-myc and His6 tags) VHH: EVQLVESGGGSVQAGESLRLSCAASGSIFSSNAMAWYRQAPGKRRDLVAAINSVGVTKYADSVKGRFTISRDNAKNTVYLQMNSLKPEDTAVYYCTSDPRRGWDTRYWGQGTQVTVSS then?
98

For CX3CR1BII66B02 (N52T, Q108L) (VHH, name in Kabat numbering, Kabat numbering) VHH: EVQLVESGGGSVQAGESLRLSCAASGSIFSSNAMAWYRQAPGKRRDLVAAITSVGVTKYADSVKGRFTISRDNAKNTVYLQMNSLKPEDTAVYYCTSDPRRGWDTRYWGQGTLVTVSS then?
98

For CX3CR1BII66B02 (S53P, Q108L) (VHH, name in Kabat numbering, Kabat numbering) VHH: EVQLVESGGGSVQAGESLRLSCAASGSIFSSNAMAWYRQAPGKRRDLVAAINPVGVTKYADSVKGRFTISRDNAKNTVYLQMNSLKPEDTAVYYCTSDPRRGWDTRYWGQGTLVTVSS then?
98.2

For CX3CR1BII66B02 (N52G, Q108L) (VHH, name in Kabat numbering, Kabat numbering) VHH: EVQLVESGGGSVQAGESLRLSCAASGSIFSSNAMAWYRQAPGKRRDLVAAIGSVGVTKYADSVKGRFTISRDNAKNTVYLQMNSLKPEDTAVYYCTSDPRRGWDTRYWGQGTLVTVSS then?
98

For CX3CR1BII66B02 (N52Q, Q108L) (VHH, name in Kabat numbering, Kabat numbering) VHH: EVQLVESGGGSVQAGESLRLSCAASGSIFSSNAMAWYRQAPGKRRDLVAAIQSVGVTKYADSVKGRFTISRDNAKNTVYLQMNSLKPEDTAVYYCTSDPRRGWDTRYWGQGTLVTVSS then?
97.9

For CX3CR1BII66B02 (S53G, Q108L) (VHH, name in Kabat numbering, Kabat numbering) VHH: EVQLVESGGGSVQAGESLRLSCAASGSIFSSNAMAWYRQAPGKRRDLVAAINGVGVTKYADSVKGRFTISRDNAKNTVYLQMNSLKPEDTAVYYCTSDPRRGWDTRYWGQGTLVTVSS then?
98.3

For CX3CR1BII66B02 (S53T, Q108L) (VHH, name in Kabat numbering, Kabat numbering) VHH: EVQLVESGGGSVQAGESLRLSCAASGSIFSSNAMAWYRQAPGKRRDLVAAINTVGVTKYADSVKGRFTISRDNAKNTVYLQMNSLKPEDTAVYYCTSDPRRGWDTRYWGQGTLVTVSS then?
98.1
